Values compiled from patent US10925971B2.

Molecular target: T1, dimeric human PRLR (hPRLR.mFc; SEQ ID NO:402) (Homo sapiens, UniProt P16471)
T1 construct: dimeric (hPRLR.mFc)
T1 sequence (P16471 with tags, fused parts or gaps): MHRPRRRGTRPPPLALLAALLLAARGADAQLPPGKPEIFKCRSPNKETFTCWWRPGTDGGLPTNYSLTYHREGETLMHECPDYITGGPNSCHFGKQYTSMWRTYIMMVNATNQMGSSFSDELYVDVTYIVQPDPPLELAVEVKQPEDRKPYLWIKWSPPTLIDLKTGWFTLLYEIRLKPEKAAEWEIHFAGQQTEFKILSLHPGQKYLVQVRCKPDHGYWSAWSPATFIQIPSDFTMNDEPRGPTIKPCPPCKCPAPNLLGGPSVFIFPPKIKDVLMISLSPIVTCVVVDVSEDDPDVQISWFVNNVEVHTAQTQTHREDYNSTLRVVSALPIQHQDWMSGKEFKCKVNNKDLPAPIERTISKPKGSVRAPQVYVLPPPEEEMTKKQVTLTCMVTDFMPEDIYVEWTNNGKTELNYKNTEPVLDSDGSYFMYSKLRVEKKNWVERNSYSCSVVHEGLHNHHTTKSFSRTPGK
Experiment: Surface plasmon resonance (Biacore T200), antibody-capture format
Assay type: binding
Settings: 25° C., analyte hPRLR.mFc
Outcome measure: ka (M/s)
I only need the number, in M/s, no unit after it.

Exercise: Determine its reported ka: H1H6774P: fully human anti-PRLR antibody, human IgG1 Fc; HCVR/LCVR SEQ ID NOs 34/42 (antibody, V domains shown) VH: EVQLVESGGGLAQPGGSLRLSCVASGFTFSTYWMSWVRQAPGKGLDWVGNIKQDGSEQNYVDSVRGRFTISRDNAKNSLFLQMNSLRAEDTGVYYCATLLTKGDYWGQGTLVTVSS VL: DIQMTQSPSSLSASVGDSVTITCRASQDISNYLDWFQQKPGKAPKSLIYAASILQGGVPSRFSGSGYGTDFTLTISSLQPEDFATYYCRQYKTYPFTFGPGTKVDIK
Solution: 798000

Exercise: Determine its reported ka: H1H6797P: fully human anti-PRLR antibody, human IgG1 Fc; HCVR/LCVR SEQ ID NOs 178/186 (antibody, V domains shown) VH: EVQLVESGGGLVQPGGSLRLSCIVSGFTFSGSWMSWVRQLPGKGLEWVANIKEDGSDSYYVDSVEGRFTISRDNAKSSLYLQMNSLRVDDTAVYFCARARTVPLHYWGQGTLVTVSS VL: DIQMTQSPSTLSASVGDRVTITCRASQSINIWLAWYQQKPGKAPKLLIYRASYLESGVPSSFAGGGSGTEFTLTISSLQPDDFGTYYCQHYNSYPFTFGQGTKLEIK
Solution: 982000
